# TARGET OF ASSAY: glucocerebrosidase (Gcase) (Homo sapiens)
# Construct: micellar solution containing 10 nM GCase and 100 nM saposin C
# Sequence (P04062 40-536): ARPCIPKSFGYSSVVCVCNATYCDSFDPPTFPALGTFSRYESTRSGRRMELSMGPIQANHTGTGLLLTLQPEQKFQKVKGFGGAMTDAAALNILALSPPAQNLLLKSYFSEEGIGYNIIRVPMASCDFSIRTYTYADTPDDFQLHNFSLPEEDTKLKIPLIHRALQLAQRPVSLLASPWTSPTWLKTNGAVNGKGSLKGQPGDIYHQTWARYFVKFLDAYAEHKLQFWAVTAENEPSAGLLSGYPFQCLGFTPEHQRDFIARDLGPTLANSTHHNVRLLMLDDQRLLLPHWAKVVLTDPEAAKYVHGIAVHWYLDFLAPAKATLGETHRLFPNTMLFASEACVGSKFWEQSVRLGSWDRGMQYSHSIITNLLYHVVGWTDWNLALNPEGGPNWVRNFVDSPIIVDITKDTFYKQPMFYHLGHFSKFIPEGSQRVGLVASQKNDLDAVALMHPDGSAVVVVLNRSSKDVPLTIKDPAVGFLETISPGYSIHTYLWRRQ
# PROTOCOL SUMMARY: Glucocerebrosidase (Gcase) activation assay, 4-methylumbelliferyl-beta-D-glucopyranoside substrate, with saposin C
# Type: biochemical
# ASSAY CONDITIONS: 0.25 h; read-out: Percent Gcase Activation 0.1 μM Test Compound
VALUE KIND: activation at 0.1 µM

Known activation at 0.1 µM results, listed for orientation:
• C#CC(NC(=O)c1ncc2c(C)cc(-c3cccc(F)c3)nn12)C(F)(F)F (centres unmarked) = > 20%
• Cc1cc(-c2ccc(F)cc2)nn2c(C(=O)NC(C3CC3)C(F)(F)F)ncc12 (centres unmarked) = > 20%
• Cc1cc(-c2cc(C)c3cnc(C(=O)N[C@@H](C4CC4)C(F)(F)F)n3n2)sn1 = 5 to 20%
• Cc1cc(-c2cccc3ocnc23)nn2c(C(=O)NC(C3CC3)C(F)(F)F)cnc12 (centres unmarked) = 5 to 20%
• Cc1cc(C)c2cnc(C(=O)N[C@@H](C)C3CC3)n2n1 = < 5%

Record activation at 0.1 µM for all entries; do not skip any.
1. CCCCCCOC1CCC(NC(=O)c2ncc3c(C)cc(C)nn23)CC1 (centres unmarked)
2. Cc1cc(C)c2cnc(C(=O)NC(C3CC3)C(F)(F)F)n2n1 (centres unmarked)
3. Cc1cc(-c2ccc(C#N)o2)nn2c(C(=O)N[C@@H](C3CC3)C(F)(F)F)ncc12
4. Cc1cc(C)c2onc(C(=O)NC(C3CC3)C(F)(F)F)c2n1 (centres unmarked)
5. Cc1cc(-c2cccc(F)c2)nn2c(C(=O)NC(C)C(F)(F)F)ncc12 (centres unmarked)
6. Cc1cc(-c2cccnc2)nc2c(C(=O)NC(C)(C)C3CC3)nsc12
7. Cc1cc(N2CCCC(F)(F)C2)nn2c(C(=O)N[C@@H](C3CC3)C(F)(F)F)cnc12
8. C#Cc1ccc(NC(=O)c2ncc3c(C)cc(C)nn23)cc1

Solution:
5 to 20%
< 5%
> 20%
< 5%
5 to 20%
< 5%
> 20%
< 5%

Record activation at 0.1 µM for all entries; do not skip any.
1. Cc1cncc(-c2cc(C)c3ncc(C(=O)N[C@@H](C4CC4)C(F)(F)F)n3n2)c1
2. Cc1cc(-c2cccc(F)c2)nn2c(C(=O)NC(C3CC3)C(F)(F)F)cnc12 (centres unmarked)
3. Cc1ccc(-c2cc(C)c3ncc(C(=O)N[C@@H](C4CC4)C(F)(F)F)n3n2)cn1

Solution:
< 5%
> 20%
< 5%

Record activation at 0.1 µM for all entries; do not skip any.
1. Cc1cc(-c2ccc(F)cc2C#N)nn2c(C(=O)N[C@@H](C3CC3)C(F)(F)F)ncc12
2. CCCCCO[C@H]1CC[C@H](NC(=O)c2cnc3c(C)cc(C)nn23)CC1
3. CCC(NC(=O)c1noc2c(C)cc(C)nc12)c1ccccc1 (centres unmarked)
4. Cc1cc(-c2cc(F)ccc2C#N)nn2c(C(=O)N[C@@H](C)C(F)(F)F)cnc12
5. Cc1cc(-c2ccc(F)cc2C#N)nn2c(C(=O)N[C@H](C3CC3)C(F)(F)F)cnc12
6. Cc1nc2cc(-c3cc(C)c4ncc(C(=O)NC(C)C(F)(F)F)n4n3)ccc2o1 (centres unmarked)
7. Cc1cc(N2CC(C(C)C)OC2=O)nn2c(C(=O)N[C@H](C3CC3)C(F)(F)F)cnc12 (some centres unmarked)
8. Cc1cc(-c2ccc3ocnc3c2)nn2c(C(=O)NC(C)C(F)(F)F)cnc12 (centres unmarked)

Solution:
1. 5 to 20%
2. 5 to 20%
3. 5 to 20%
4. 5 to 20%
5. 5 to 20%
6. 5 to 20%
7. 5 to 20%
8. > 20%
